Data origin: patent US20260209362A1

// reported ELISA mIL-12RB2/control per item
Target: T1, biotinylated recombinant mouse IL-12Rβ2 (mouse, UniProt P97378 24-637, random biotinylated)
T1 construct: Recombinant protein produced in-house; also called mIL-12RB2; mouse IL-12RB2
T1 sequence: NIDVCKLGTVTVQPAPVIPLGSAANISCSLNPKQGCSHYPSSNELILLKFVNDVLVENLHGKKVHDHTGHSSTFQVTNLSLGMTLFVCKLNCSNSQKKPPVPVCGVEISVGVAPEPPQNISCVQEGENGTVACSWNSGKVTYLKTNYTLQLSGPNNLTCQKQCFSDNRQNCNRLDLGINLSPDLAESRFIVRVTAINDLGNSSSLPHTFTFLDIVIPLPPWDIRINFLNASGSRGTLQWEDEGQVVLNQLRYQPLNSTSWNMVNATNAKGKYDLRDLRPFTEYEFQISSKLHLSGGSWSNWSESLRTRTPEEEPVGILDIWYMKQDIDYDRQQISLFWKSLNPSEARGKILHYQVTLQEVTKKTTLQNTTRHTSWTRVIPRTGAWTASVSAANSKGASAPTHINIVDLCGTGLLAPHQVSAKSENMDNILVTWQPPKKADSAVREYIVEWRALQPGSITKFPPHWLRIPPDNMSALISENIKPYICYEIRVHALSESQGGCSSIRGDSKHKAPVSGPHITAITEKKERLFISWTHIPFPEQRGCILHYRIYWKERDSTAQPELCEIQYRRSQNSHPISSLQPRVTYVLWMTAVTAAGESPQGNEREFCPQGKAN
Assay: ELISA, P.E., biotinylated antigen
Quick one: just the number, no unit, thanks!

Past entries and their recorded results:
binder | readoutNumber
anti-IL-12Rβ2 VHH clone 3CAHS124 (clone ID 20400) (VHH, not shown: small tags and cut ends, periplasmic extract) VHH: QVQLQESGGGLVQPGGSLRLSCAASGRTINAYIMGWFRQAPGKEREFVAAVSGSGGSTYYADSVKGRFTISRDNAKNTVNLQMDNLRSEDTDVYYCAATYESVYLQNPGQYDYWGQGTQVTVSS | 1
anti-IL-12Rβ2 VHH clone 2CRH53 (clone ID 20366) (VHH, not shown: small tags and cut ends, periplasmic extract) VHH: QVQLQESGGGLVQAGGSLVLSCAASGSAALIFLMSWYRQAPGKQRELVAEVSRYGSTTYADSVEGRFTISRDNAKDIVDLQMNSLKPEDTAVYYCKADQYYGDSLRSSWGRGTQVTVSS | 0.967
anti-IL-12Rβ2 VHH clone 3CRHS184 (clone ID 20441) (VHH, not shown: small tags and cut ends, periplasmic extract) VHH: QVQLQESGGGLVQAGGSLVLSCAASGSAALIFLMSWYRQAPGKQRELVAEVSRYGSTTYADSVEGRFTISRDNAKNIVDLQMNSLKPEDTAVYYCKADQYYGDSLRSSWGRGTQLTVSS | 1.06
anti-IL-12Rβ2 VHH clone 3CRHS31 (clone ID 20418) (VHH, not shown: small tags and cut ends, periplasmic extract) VHH: QVQLQESGGGLVQAGGSLRLSCAASGFTFSTYAMSWVRQAPGKGLEWVSSVNSGGLSTDYADSVEGRFTISRDDAKNMLFLQMNSLKPEDTARYYCAKYEDCSDYVCDRAGYWGQGTQVTVSS | 1.16
anti-IL-12Rβ2 VHH clone 3CAH48 (clone ID 20360) (VHH, not shown: small tags and cut ends, periplasmic extract) VHH: QVQLQESGGGLVQAGGSLRLSCAASGRTFSSYAMGWFRQGPGKEREFVAAISWSGVSTYYADSVKGRFTISRDNAKNTVYLQMNSLRPEDTAVYYCAATEGAYTVAGGSTFGYDMDYWGKGTQVTVSS | 1.11

Hello, please tell me recorded ELISA mIL-12RB2/control for this one: anti-IL-12Rβ2 VHH clone 3CAHS102 (clone ID 20399) (VHH, not shown: small tags and cut ends, periplasmic extract) VHH: QVQLQESGGGLVQPGGSLRLSCAASGSILRINLMGWYRQVPGKQRELVAEMSTGGSTTYVDSVEGRFTISRDNAKNTVYLQMNSLKPEDTAVYYCNAKAWQLGRLENDDWGQGTQVTVSS
1.02

Hello, please tell me recorded ELISA mIL-12RB2/control for this one: anti-IL-12Rβ2 VHH clone 3CRHS100 (clone ID 20428) (VHH, not shown: small tags and cut ends, periplasmic extract) VHH: QVQLQESGGGLVQPGGSLRLSCTASGSIFSIYNMDWYRQAPGNQREWVASITPSGDPYYDDSAKGRFTISRDNAKMTVYLQMNSLKPEDTAVYYCKVPTEKGNYWGQGTQVTVSS
1.05

Hello, please tell me recorded ELISA mIL-12RB2/control for this one: anti-IL-12Rβ2 VHH clone 3CRHS54 (clone ID 20422) (VHH, not shown: small tags and cut ends, periplasmic extract) VHH: QVQLQESGGGLVQPGGSLRLSCTASGSIVSIYNMDWYRQAPGNEREWVASITSSGDPYYDGSAKGRFTISRDNAKMTVYLQMNSLEPEDTAVYFCKVPTEKGNYWGQGTQVTVSS
1.26

Hello, please tell me recorded ELISA mIL-12RB2/control for this one: anti-IL-12Rβ2 VHH clone 3CRH28 (clone ID 20380) (VHH, not shown: small tags and cut ends, periplasmic extract) VHH: QVQLQESGGGLVQPGGSLTLSCAASGFTFSSNAMSWVRQAPGKGLEWVSSISSGGGTTYYTDSVKGRFTTARDNAKNTLYLRMNSLKPEDTAVYYCSKSSTGSGSRGQGTQVTVSS
0.975

Hello, please tell me recorded ELISA mIL-12RB2/control for this one: anti-IL-12Rβ2 VHH clone 3CRH5 (clone ID 20373) (VHH, not shown: small tags and cut ends, periplasmic extract) VHH: QVQLQESGGGLVQAGGSLVLSCAASGSAALIFLMSWYRQAPGKQRELVAEVSRGGSTTYADSVEGRFTISRDNAKNIVDLQMNSLKPEDTAVYYCKADQNYGDSLRSSWGQGTQVTVSS
0.808

Hello, please tell me recorded ELISA mIL-12RB2/control for this one: anti-IL-12Rβ2 VHH clone 3CRHS148 (clone ID 20436) (VHH, not shown: small tags and cut ends, periplasmic extract) VHH: QVQLQESGGGLVQPGGSLRLSCIASGSIFSIYNMDWYRQAPGNQREWVASITPSGDPYYDDSAKGRFTISRDNAKMTVYLQMNSLKPEDTAVYYCKVPTEKGNYWGQGTQVTVSS
0.74
